Molecular target: T1, mouse MAdCAM (mouse, UniProt Q61826 22-365, limits assumed)
T1 construct: also called mouse MAdCAM-1; muMAdCAM
T1 sequence (looked up): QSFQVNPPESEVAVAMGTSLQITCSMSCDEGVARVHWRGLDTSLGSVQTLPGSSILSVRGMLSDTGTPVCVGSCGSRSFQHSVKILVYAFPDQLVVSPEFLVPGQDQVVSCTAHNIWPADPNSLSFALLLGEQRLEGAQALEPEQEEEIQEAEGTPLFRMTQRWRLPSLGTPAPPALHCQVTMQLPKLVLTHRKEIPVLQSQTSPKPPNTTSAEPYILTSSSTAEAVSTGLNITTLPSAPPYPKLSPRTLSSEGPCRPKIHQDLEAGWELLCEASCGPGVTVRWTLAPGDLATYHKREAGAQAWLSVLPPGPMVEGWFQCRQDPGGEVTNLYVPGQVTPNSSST
Assay: BLI (Octet), binder on anti-human Fc tips
MEASURED_ATTRIBUTE: pKd
Keep it numeric: pKd is minus log10 of the concentration in mol/L.

>  <BINDER>
MIAB121 (antibody, V domains shown, tested with human Fc) VH: EVQLLESGGGLVQPGGSLRLSCAASGFIFDDYAMHWVRQAPGKGLEWVASITSSSAFIDYADSVKGRFTISRDNSKNTLYLQMNSLRAEDTAVYYCARERVDWFSYFDLWGQGTLVTVSS VL: EIVMTQSPATLSVSPGERATLSCRACPSVSNNLVWYQQKPGQAPRLLIYDASTRATGIPARFSGSGSGTEFTLTISSLQSEDFAVYYCQQYSHWPPTFGQGTKVEIK

>  <pKd>
6.93

$$$$
>  <BINDER>
MIAB123 (antibody, V domains shown, tested with human Fc) VH: EVQLLESGGGLVQPGGSLRLSCAASGFIFDDYAMHWVRQAPGKGLEWVASITSSSAFIDYADSVKGRFTISRDNSKNTLYLQMNSLRAEDTAVYYCARERVDWFSYFDLWGQGTLVTVSS VL: EIVMTQSPATLSVSPGERATLSCRASQSVSNNYLVWYQQKPGQAPRLLIYDASTRATGIPARFSGSGSGTEFTLTISSLQSEDFAVYYCQQYSHWPPTFGQGTKVEIK

>  <pKd>
6.79

$$$$
>  <BINDER>
MIAB205 (antibody, V domains shown, tested with human Fc) VH: EVQLLESGGGLVQPGGSLRLSCAASGFTFDDYAMHWVRQAPGKGLEWVASITSSSAFIDYADSVKGRFTISRDNSKNTLYLQMNSLRAEDTAVYYCARERVDWFSYFDLWGQGTLVTVSS VL: EIVMTQSPATLSVSPGERATLSCRASQSVYSNLAWYQQKPGQAPRLLIYRASTRATGIPARFSGSGSGTEFTLTISSLQSEDFAVYYCQQYHIWPPTFGQGTKVEIK

>  <pKd>
7.37

$$$$
>  <BINDER>
MIAB26 (antibody, V domains shown, tested with human Fc) VH: EVQLLESGGGLVQPGGSLRLSCAASGFTFDDYAMHWVRQAPGKGLEWVASITSSSAFIDYADSVKGRFTISRDNSKNTLYLQMNSLRAEDTAVYYCARERVDWNSYFDLWGQGTLVTVSS VL: EIVMTQSPATLSVSPGERATLSCRASQSVYSNLAWYQQKPGQAPRLLIYRASTRATGIPARFSGSGSGTEFTLTISSLQSEDFAVYYCQQYHIWPPTFGQGTKVEIK

>  <pKd>
8.00

$$$$

Reported pKd, binder MIAB208 (antibody, V domains shown, tested with human Fc) VH: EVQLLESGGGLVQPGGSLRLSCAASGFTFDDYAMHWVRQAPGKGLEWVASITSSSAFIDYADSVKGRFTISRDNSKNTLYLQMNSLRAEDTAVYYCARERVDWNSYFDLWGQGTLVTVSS VL: EIVMTQSPATLSVSPGERATLSCRASQSVYSNLAWYQQKPGQAPRLLIYDASTRATGIPARFSGSGSGTEFTLTISSLQSEDFAVYYCQQYHIWPPTFGQGTKVEIK : ____
7.12

Reported pKd, binder MIAB206 (antibody, V domains shown, tested with human Fc) VH: EVQLLESGGGLVQPGGSLRLSCAASGFTFDDYAMHWVRQAPGKGLEWVASITSSSAFIDYADSVKGRFTISRDNSKNTLYLQMNSLRAEDTAVYYCARERVDWYSYFDLWGQGTLVTVSS VL: EIVMTQSPATLSVSPGERATLSCRASQSVYSNLAWYQQKPGQAPRLLIYRASTRATGIPARFSGSGSGTEFTLTISSLQSEDFAVYYCQQYHIWPPTFGQGTKVEIK : ____
8.12

Reported pKd, binder MIAB12 (antibody, V domains shown, tested with human Fc) VH: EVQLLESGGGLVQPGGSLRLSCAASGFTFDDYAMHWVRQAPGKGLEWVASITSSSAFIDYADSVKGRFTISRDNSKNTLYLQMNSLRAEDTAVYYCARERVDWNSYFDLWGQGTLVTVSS VL: EIVMTQSPATLSVSPGERATLSCRACPGISNSYLAWYQQKPGQAPRLLIYGASTRATGIPARFSGSGSGTEFTLTISSLQSEDFAVYYCQQYYTYPPTFGQGTKVEIK : ____
7.11

Reported pKd, binder MIAB1 (antibody, V domains shown, tested with human Fc) VH: EVQLLESGGGLVQPGGSLRLSCAASGFTFDDYAMHWVRQAPGKGLEWVASITSSSAFIDYADSVKGRFTISRDNSKNTLYLQMNSLRAEDTAVYYCAREPVDWNSYFDLWGQGTLVTVSS VL: EIVMTQSPATLSVSPGERATLSCRASQGISNSYLAWYQQKPGQAPRLLIYGASTRATGIPARFSGSGSGTEFTLTISSLQSEDFAVYYCQQYYTYPPTFGQGTKVEIK : ____
6.74

Reported pKd, binder MIAB2 (antibody, V domains shown, tested with human Fc) VH: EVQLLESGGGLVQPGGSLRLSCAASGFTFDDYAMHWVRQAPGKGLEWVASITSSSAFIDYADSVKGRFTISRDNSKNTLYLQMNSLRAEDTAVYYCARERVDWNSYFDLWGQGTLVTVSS VL: EIVMTQSPATLSVSPGERATLSCRASQGISNSYLAWYQQKPGQAPRLLIYGASTRATGIPARFSGSGSGTEFTLTISSLQSEDFAVYYCQQYYTYPPTFGQGTKVEIK : ____
6.83
